The measurements presented in this section are drawn from paper PMC4538536.

Assay: In vivo pharmacokinetics in infected mice (plasma, LC-MS/MS)
Parameters: species or system BALB/c mice
Conditions: BALB/c, mouse, plasma, po, 25 mg/kg, Group 5 triplet EMB 100/BDQ 25/SQ109 25 mg/kg oral; steady state, infected mice; read-out: Cmax in Triplet
For each entry below, report its Cmax value.
Quick note: give the figure in ng/mL, leave out the unit.

Look at this compound and give its reported Cmax. COc1nc2ccc(Br)cc2cc1[C@@H](c1ccccc1)[C@@](O)(CCN(C)C)c1cccc2ccccc12 [Bedaquiline] 2000

Using the record for CC(C)=CCC/C(C)=C/CNCCNC1C2CC3CC(C2)CC1C3 (stereo not drawn) [SQ109] , report its Cmax. 5500

Need Cmax, item CC[C@@H](CO)NCCN[C@@H](CC)CO [Ethambutol] 1300
